Experiment description: Pharmacokinetics in rats after intravenous and oral gavage dosing, plasma LC-MS/MS
Format: in vivo
Condition parameters: both sexes, Sprague-Dawley, rat; SD rats, plasma; 15 mg/kg oral gavage / 1 mg/kg intravenous; table does not state the route; read-out: t1/2 (converted)
Protocol: Preparation of intravenous bolus administration formulations: A graduation line for the final volume was marked on a clean and dry container. […] The concentration of the compounds in plasma was determined by LC-MS/MS, and data acquisition was performed using Analyst 1.6.3 software (AB Sciex). The pharmacokinetic parameters of the rats after administration were calculated using the non-compartmental model in Phoenix WinNonlin software. […]
Experimental readout: half-life (h)
State just the number; it will be interpreted in h.

Recorded half-life for O=c1cc(-c2ccccc2)oc2c(O)c(O)ccc12 [7,8-dihydroxyflavone, 7,8-dihydroxyflavone, reference compound] , please?
3.32

Reference source for all entries: patent EP4755877A1
